// values below are reported Activity
- System: SW480
- Procedure Text: Cell cycle arrest in SW480 cells by accumulation at S phase at 50 uM after 24 hrs by propidium iodide staining
- Format: functional, Homo sapiens
Experimental Endpoint: Activity (%)

- C=C1C=C(C(CCCCCCCCCCCCCC)OC)C(=O)O1 (centres undefined) [SUBAMOLIDE C]: 41.2
- CCCCCCCCCCCCC/C=C1/C(=O)O[C@@](C)(OC)[C@@H]1O [SUBAMOLIDE B]: 38.8
- CCCCCCCCCCCCC/C=C1\C(=O)O[C@@](C)(OC)[C@@H]1O [SUBAMOLIDE A]: 41
- CCCCCCCCCCCCC/C=C(/C(=O)OC)[C@H](O)C(C)=O [SECOSUBAMOLIDE]: 40.6

---

- Tested on: SW480
- Procedure Text: Cell cycle arrest in SW480 cells by accumulation at S phase at 25 uM after 24 hrs by propidium iodide staining
- Assay type: functional, Homo sapiens
Experimental Endpoint: Activity (%)

- C=C1C=C(C(CCCCCCCCCCCCCC)OC)C(=O)O1 (centres undefined) [SUBAMOLIDE C]: 45.8
- CCCCCCCCCCCCC/C=C1/C(=O)O[C@@](C)(OC)[C@@H]1O [SUBAMOLIDE B]: 46
- CCCCCCCCCCCCC/C=C1\C(=O)O[C@@](C)(OC)[C@@H]1O [SUBAMOLIDE A]: 39.6
- CCCCCCCCCCCCC/C=C(/C(=O)OC)[C@H](O)C(C)=O [SECOSUBAMOLIDE]: 39.5

---

- Test system: SW480
- Procedure Text: Cell cycle arrest in SW480 cells by accumulation at G1 phase at 25 uM after 24 hrs by propidium iodide staining
- Type: functional, Homo sapiens
// values below are reported Activity
Experimental Endpoint: Activity (%)

• CCCCCCCCCCCCC/C=C1\C(=O)O[C@@](C)(OC)[C@@H]1O [SUBAMOLIDE A] = 48.2
• CCCCCCCCCCCCC/C=C(/C(=O)OC)[C@H](O)C(C)=O [SECOSUBAMOLIDE] = 47.1
• CCCCCCCCCCCCC/C=C1/C(=O)O[C@@](C)(OC)[C@@H]1O [SUBAMOLIDE B] = 47.7
• C=C1C=C(C(CCCCCCCCCCCCCC)OC)C(=O)O1 (centres undefined) [SUBAMOLIDE C] = 44.4

---

- Tested on: SW480
- Procedure Text: Cell cycle arrest in SW480 cells by accumulation at G2/M phase at 50 uM after 24 hrs by propidium iodide staining
- Format: functional, Homo sapiens
Experimental Endpoint: Activity (%)

- CCCCCCCCCCCCC/C=C(/C(=O)OC)[C@H](O)C(C)=O [SECOSUBAMOLIDE]: 11.4
- C=C1C=C(C(CCCCCCCCCCCCCC)OC)C(=O)O1 (centres undefined) [SUBAMOLIDE C]: 11.3
- CCCCCCCCCCCCC/C=C1/C(=O)O[C@@](C)(OC)[C@@H]1O [SUBAMOLIDE B]: 16.9
- CCCCCCCCCCCCC/C=C1\C(=O)O[C@@](C)(OC)[C@@H]1O [SUBAMOLIDE A]: 12.8

---

- System: SW480
- Procedure Text: Cell cycle arrest in SW480 cells by accumulation at S phase at 100 uM after 24 hrs by propidium iodide staining
- Assay type: functional, Homo sapiens
Experimental Endpoint: Activity (%)

* CCCCCCCCCCCCC/C=C1/C(=O)O[C@@](C)(OC)[C@@H]1O [SUBAMOLIDE B] | 37.4
* C=C1C=C(C(CCCCCCCCCCCCCC)OC)C(=O)O1 (centres undefined) [SUBAMOLIDE C] | 33
* CCCCCCCCCCCCC/C=C1\C(=O)O[C@@](C)(OC)[C@@H]1O [SUBAMOLIDE A] | 29.8
* CCCCCCCCCCCCC/C=C(/C(=O)OC)[C@H](O)C(C)=O [SECOSUBAMOLIDE] | 34.5
